Molecular target: WT-TTR (Homo sapiens, UniProt P02766)
Construct: made in house
Assay: Stagnant acid-mediated TTR aggregation (fibril formation) assay, turbidity at 340 nm
Type: biochemical
Conditions: 72 h, read-out: % FF at 50 μM
Protocol: Stagnant Acid-Mediated TTR Aggregation Assay. After 1 h, the samples were diluted with 0.5 ml of 200 mM sodium acetate buffer containing 100 mM KCl and 1 mM EDTA. […] The extent of aggregation was probed by turbidity measurements at 340 nm using Tecan GENios microplate reader. […] The IC50 was determined by plotting mean of % inhibition vs log and fitted to sigmoid equation: […]
API: label(entry) gives Satisfied if the entry's remaining activity at 50 µM is strictly smaller than 50%; on equality or larger values it gives Not satisfied.

O=Cc1ccc(Oc2ccc([N+](=O)[O-])cc2[N+](=O)[O-])c(O)c1 ... Satisfied
Oc1cc(CCl)ccc1Oc1ccc(Cl)cc1Cl ... Satisfied
COc1cc(CO)ccc1Oc1ccccc1 ... Not satisfied
COc1cc(C(=O)O)ccc1Oc1ccc([N+](=O)[O-])cc1[N+](=O)[O-] ... Satisfied
COc1cc(CO)ccc1Oc1ccc([N+](=O)[O-])cc1[N+](=O)[O-] ... Satisfied
O=Cc1ccc(Oc2ccccc2)c(O)c1 ... Not satisfied

Next:
Task item: API: query returns whether the compound falls strictly under 50% in remaining activity at 50 µM. Query: Oc1cc(Cl)ccc1Oc1ccc(Cl)cc1Cl [Compound 1, Triclosan, reference compound]
Reply: Satisfied

====

Target: WT-TTR (Homo sapiens, UniProt P02766)
Construct: made in house
Assay: Stagnant acid-mediated TTR aggregation (fibril formation) assay, turbidity at 340 nm
Assay type: biochemical
Conditions: 72 h, pH 4.4, compound 100 μM, WT-TTR 7.2 μM, pH 4.4, 37° C.; read-out: % FF
Protocol: Stagnant Acid-Mediated TTR Aggregation Assay. After 1 h, the samples were diluted with 0.5 ml of 200 mM sodium acetate buffer containing 100 mM KCl and 1 mM EDTA. […] The extent of aggregation was probed by turbidity measurements at 340 nm using Tecan GENios microplate reader. […] The IC50 was determined by plotting mean of % inhibition vs log and fitted to sigmoid equation: […]
Readout type: remaining activity at 100 µM (%)
Numbers only, in %.

# annotated cases, reported remaining activity at 100 µM shown
Cc1nc2c(C(=O)NCCC(C)C)cnn2c(O)c1Cc1ccccc1F [Compound C218-0295] ... -86.7
CCN1C(=O)/C(=C/c2ccc(N(CC)CC)cc2O)SC1=S [Compound 1996-0170] ... 177
O=C(NC(c1ccccc1)c1cc(Cl)c2cccnc2c1O)c1cccnc1 (centres unmarked) [Compound K839-0113] ... 29.6
Cc1ccsc1/C=c1\sc2nc(-c3cccs3)nn2c1=O [Compound 5629-0544] ... 77.8

Below: the item to evaluate.
Task item: Give WT-TTR (Homo sapiens, UniProt P02766) remaining activity at 100 µM for Cc1nc2c(C(=O)NCc3ccc(F)cc3)cnn2c(O)c1Cc1ccccc1F [Compound C218-0299]
Reply: 46.9

====

Target: WT-TTR (Homo sapiens)
Construct: made in house
Experiment: Stagnant acid-mediated TTR aggregation (fibril formation) assay, turbidity at 340 nm
Format: biochemical
Conditions: pH 4.4, compound 100 μM, WT-TTR 7.2 μM, pH 4.4, 37° C.; read-out: % Inhibition
Readout type: inhibition at 100 µM

# annotated cases, reported inhibition at 100 µM shown
Cc1nc2c(ccc3ccccc32)c(O)c1CN(C)Cc1ccccc1 ... 0%
Cc1cc(C(=O)Nc2cc(Cl)ccc2O)no1 ... 3.18%
NN1C(=O)/C(=C\c2ccc(Cl)cc2)NC1=S ... 0%

The following molecules each have a reported value; give each one's inhibition at 100 µM.
1. CCOc1cccc2c1OC(c1cccc(Cl)c1)N1N=C(c3cccs3)CC21 (stereo not drawn)
2. Cc1nnc2c(Oc3ccc(Cl)cc3)nc3ccccc3n12
3. COc1ccccc1NC(=S)N(CCCN1CCCCCC1)Cc1cccs1
4. CCN(CC)CCCN(Cc1ccco1)C(=S)Nc1ccc(OC)cc1
5. O=C(NC(c1ccccc1)c1cc(Cl)c2cccnc2c1O)c1cccnc1 (stereo not drawn)
6. Nc1nc(F)cc(Oc2ccccc2F)n1

Reply:
1. 0%
2. 0%
3. 0%
4. 0%
5. 70.4%
6. 45.6%
